- System: A549
- Experiment summary: Cytotoxicity against human A549 cells after 24 hrs by SRB assay
- Assay type: functional, cell-based
- Settings: A549, 24 h
Recorded metric: IC50 (µM)
Could you give me the number in µM? Just the number is fine.

Please give the measured IC50 for this compound: COc1cc(O)c2c(c1)[C@@H]([C@H]1c3cc(C)cc(O)c3C(=O)c3c(O)cc(O)cc31)c1cc(C)cc(O)c1C2=O (relative stereo) 9.2

Please give the measured IC50 for this compound: COc1cc(O)c2c(c1)[C@H]([C@H]1c3cc(C)cc(O)c3C(=O)c3c(O)cc(O)cc31)c1cc(C)cc(O)c1C2=O (relative stereo) 14.2

Please give the measured IC50 for this compound: COc1cc(O)cc2c1C(=O)c1c(O)cc(C)c3oc(=O)c(C(=O)c4c(C)cc(O)cc4O)c-2c13 [ASPERGIOLIDE B] 0.24
